Reference source: patent US9771358B2

Test: PK of test compounds in beagle
Format: in vivo, beagle dog
Details: dog, plasma, po, 5 mg/kg
experimentalReadout: half-life (h)
Give bare numbers, in h.

Reported half-life for CCOC(=O)C1=C(CN2CCO[C@H](CCC(=O)O)C2)NC(c2nccs2)=N[C@H]1c1ccc(F)cc1Br was 5.1

###

Test: Stability in liver microsome, dog
Assay type: in vitro ADME
Settings: liver microsomes; dog liver microsome 0.1 mg/mL, compound 1 μM, NADPH 2 mM
Description: Then two parallel samples were prepared. After a 10 minutes preincubation at 37° C., 15 μL of NADPH solution (8 mM) was added according to the point-in-time. The final concentration of the text compound was 1 μM, the concentration of liver microsome was 0.1 mg/mL, the final concentration of NADPH was 2 mM. The incubations were last for 0, 15, 30, 60 min respectively, and then 150 μL of acetonitrile (include interior label) was added to the mixture system. […]
Kindly return class 1 if reported CLint scaled at 1 μM is no lower than 10 mL/min/kg; return class 0 if it is lower.

Worked examples, 4 molecules total:
- CCOC(=O)C1=C(CN2CCO[C@H](CCC(=O)O)C2)NC(c2nccs2)=N[C@H]1c1ccc(F)cc1Br: class 1
- COC(=O)C1=C(CN2CCO[C@H](CCC(=O)O)C2)NC(c2nccs2)=N[C@H]1c1ccc(Cl)cc1Cl: class 0
- CCOC(=O)C1=C(CN2CCO[C@H](CCC(=O)O)C2)NC(c2nccs2)=N[C@H]1c1ccc(Cl)cc1Cl: class 1
- CCOC(=O)C1=C(CN2CCO[C@H](CCC(=O)O)C2)NC(c2nccs2)=N[C@H]1c1ccc(F)cc1Cl: class 1

Decide: is the reported value of CLint scaled at 1 μM for COC(=O)C1=C(CN2CCO[C@H](CCC(=O)O)C2)NC(c2nccs2)=N[C@H]1c1ccc(F)cc1Cl equal to or greater than 10 mL/min/kg?
class 0
